biological target: rat mGluR5 (Rattus norvegicus, UniProt P31424); construct: expressed in transfected cells; host or cells: human embryonic kidney (HEK) cells; assay: potentiation of mGluR5 response to glutamate, Ca2+ fluorescence (FDSS) in HEK cells transfected with rat mGluR5; type: cell-based; details: potentiation of glutamate response, HEK cells transfected with rat mGluR5; SAR tables; read-out: EC50
Sequence (P31424 21-1203): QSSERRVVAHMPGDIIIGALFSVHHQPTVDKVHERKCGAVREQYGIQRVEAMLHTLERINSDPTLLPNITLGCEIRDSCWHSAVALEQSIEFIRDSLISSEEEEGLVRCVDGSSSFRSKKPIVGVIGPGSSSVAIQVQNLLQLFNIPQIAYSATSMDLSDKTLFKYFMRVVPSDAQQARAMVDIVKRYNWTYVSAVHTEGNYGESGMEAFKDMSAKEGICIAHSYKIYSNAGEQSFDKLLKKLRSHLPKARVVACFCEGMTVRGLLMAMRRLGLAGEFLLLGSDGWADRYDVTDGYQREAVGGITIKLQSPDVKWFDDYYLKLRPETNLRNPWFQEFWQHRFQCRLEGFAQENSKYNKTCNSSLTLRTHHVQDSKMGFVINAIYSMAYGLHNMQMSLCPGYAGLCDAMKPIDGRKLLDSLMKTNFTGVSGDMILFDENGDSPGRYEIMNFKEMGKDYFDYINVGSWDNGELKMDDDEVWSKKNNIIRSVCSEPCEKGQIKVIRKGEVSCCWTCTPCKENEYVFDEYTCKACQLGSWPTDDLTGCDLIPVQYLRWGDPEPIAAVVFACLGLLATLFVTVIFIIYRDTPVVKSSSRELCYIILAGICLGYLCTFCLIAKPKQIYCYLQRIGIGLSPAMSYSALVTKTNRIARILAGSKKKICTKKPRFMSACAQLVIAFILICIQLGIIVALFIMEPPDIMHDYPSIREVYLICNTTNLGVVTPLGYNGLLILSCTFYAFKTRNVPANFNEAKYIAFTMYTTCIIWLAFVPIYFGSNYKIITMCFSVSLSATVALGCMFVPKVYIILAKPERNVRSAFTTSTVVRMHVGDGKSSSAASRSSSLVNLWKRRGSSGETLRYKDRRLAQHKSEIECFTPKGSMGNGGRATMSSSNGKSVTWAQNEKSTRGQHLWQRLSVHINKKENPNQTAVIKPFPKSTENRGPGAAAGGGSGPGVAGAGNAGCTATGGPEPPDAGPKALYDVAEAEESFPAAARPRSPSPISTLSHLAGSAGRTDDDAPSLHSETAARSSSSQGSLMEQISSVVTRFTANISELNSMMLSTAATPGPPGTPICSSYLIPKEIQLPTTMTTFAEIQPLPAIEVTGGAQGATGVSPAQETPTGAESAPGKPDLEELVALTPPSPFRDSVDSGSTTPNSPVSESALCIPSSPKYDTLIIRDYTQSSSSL
Quantity Name: EC50 (nM)
# number only, unit nM dropped from output

Reference set, count: 5
### Prompt Give its EC50 value. Item: CC1(O)CCN(C(=O)c2ccc(C#Cc3ccccc3F)cc2)CC1 [Compound 20a]
### Response 34.9

### Prompt Try this compound too: O=C(c1ccc(C#Cc2ccc(F)cc2)cc1)N1CCC(O)CC1 [Compound 19c]
### Response 14.7

### Prompt Try this compound too: O=C(c1ccc(C#Cc2ccc(F)cc2)cc1)N1CC(O)C1 [Compound 20o]
### Response 155

### Prompt Try this compound too: O=C(c1ccc(C#Cc2ccc(F)c(F)c2)cc1)N1CCOCC1 [Compound 20l]
### Response 33.5

### Prompt Try this compound too: O=C(c1ccc(C#Cc2ccc(F)c(F)c2)cc1)N1CCC(O)CC1 [Compound 19d]
### Response 68.7

More entries:
### Prompt Give its EC50 value. Item: O=C(c1ccc(C#Cc2ccccc2F)cc1)N1CC(O)C1 [Compound 20m]
### Response 166

### Prompt Try this compound too: O=C(c1ccc(C#Cc2cccc(C(F)(F)F)c2)cc1)N1CCC(O)CC1 [Compound 19i]
### Response 2060

### Prompt Try this compound too: O=C(c1ccc(C#Cc2cc(F)cc(F)c2)cc1)N1CCC(O)CC1 [Compound 19e]
### Response 593

### Prompt Try this compound too: O=C(c1ccc(C#Cc2ccccn2)cc1)N1CCC(O)CC1 [Compound 19k]
### Response 2210

### Prompt Try this compound too: O=C(c1ccc(C#Cc2ccccc2F)cc1)N1CCC(CO)CC1 [Compound 20e]
### Response 20.6

### Prompt Try this compound too: CC1(O)CN(C(=O)c2ccc(C#Cc3ccccc3)cc2)C1
### Response 89

* * *

biological target: rat mGluR5 (Rattus norvegicus); construct: expressed in transfected cells; host or cells: human embryonic kidney (HEK) cells; test: potentiation of mGluR5 response to glutamate, Ca2+ fluorescence (FDSS) in HEK cells transfected with rat mGluR5; format: cell-based; details: Table 1, EC50 for potentiating the mGluR5 receptor; unit inferred; read-out: EC50
pEC50: −log10 of the molar value.
Outcome label depends on pEC50 relative to 7: at/above gives 1, below gives -1.

### Prompt Is pEC50 for CC(C)N1CCN(C(=O)c2ccc(C#Cc3ccccc3)cc2)CC1 at or above 7?
### Response -1

### Prompt Try this compound too: CCCC(C)NC1CCN(C(=O)c2ccc(C#Cc3ccccc3)cc2)CC1 (centres unmarked)
### Response 1

### Prompt Try this compound too: CCCC1(O)CN(C(=O)c2ccc(C#Cc3ccccc3)cc2)C1
### Response -1

### Prompt Try this compound too: Cc1cc(C#Cc2ccc(C(=O)N3CCC(O)CC3)cc2)ccc1F [Compound 19f]
### Response -1

### Prompt Try this compound too: O=C(NCCc1ccc(Cl)cc1)c1ccc(C#Cc2ccccc2)cc1
### Response -1

### Prompt Try this compound too: CN1CCCC1CCNC(=O)c1ccc(C#Cc2ccccc2)cc1 (centres unmarked)
### Response -1

### Prompt Try this compound too: O=C(c1ccc(C#Cc2cccc(C(F)(F)F)c2)cc1)N1CCC(O)CC1 [Compound 19i]
### Response -1

### Prompt Try this compound too: CN(C)CCNC(=O)c1ccc(C#Cc2ccccc2)cc1
### Response -1

### Prompt Try this compound too: CCCC1(O)CCN(C(=O)c2ccc(C#Cc3ccccc3)cc2)CC1
### Response -1

### Prompt Try this compound too: CC1(O)CCN(C(=O)c2ccc(C#Cc3ccc(F)cc3)cc2)CC1 [Compound 20c]
### Response 1

### Prompt Try this compound too: CC1(O)CCN(C(=O)c2ccc(C#Cc3cccc(F)c3)cc2)CC1 [Compound 20b]
### Response 1

### Prompt Try this compound too: O=C(c1ccc(C#Cc2ccccc2)cc1)N1CC(O)C1
### Response -1

### Prompt Try this compound too: O=C(c1ccc(C#Cc2ccccc2)cc1)N1CCN(c2ccccc2)CC1
### Response -1

### Prompt Try this compound too: O=C(c1ccc(C#Cc2ccc(F)cc2F)cc1)N1CCC(O)CC1 [Compound 19g]
### Response -1

### Prompt Try this compound too: O=C(c1ccc(C#Cc2ccccc2)cc1)N1CCC(O)(c2ccccc2)CC1
### Response -1

### Prompt Try this compound too: CC(C)CCNC(=O)c1ccc(C#Cc2ccccc2)cc1 [N-isopentyl-4-(phenylethynyl)benzamide]
### Response 1

### Prompt Try this compound too: O=C(c1ccc(C#Cc2cccc(F)c2)cc1)N1CCC(CO)CC1 [Compound 20f]
### Response 1

### Prompt Try this compound too: O=C(c1ccc(C#Cc2cc(F)cc(F)c2)cc1)N1CCC(O)CC1 [Compound 19e]
### Response -1

### Prompt Try this compound too: O=C(c1ccc(C#Cc2ccccc2)cc1)N1CCC(O)CC1
### Response 1

### Prompt Try this compound too: O=C(c1ccc(C#Cc2ccccc2)cc1)N1CCOCC1
### Response 1

### Prompt Try this compound too: CC(C)(C)CCNC(=O)c1ccc(C#Cc2ccccc2)cc1
### Response 1

* * *

Each record here notes measured EC50.
target: rat mGluR5 (Rattus norvegicus, UniProt P31424); construct: expressed in transfected cells; host or cells: human embryonic kidney (HEK) cells; test: potentiation of mGluR5 response to glutamate, Ca2+ fluorescence (FDSS) in HEK cells transfected with rat mGluR5; type: cell-based; conditions: Table 1, EC50 for potentiating the mGluR5 receptor; unit inferred; read-out: EC50
# number only, unit µM dropped from output

Reference set, count: 4
### Prompt Request - read-out EC50 | tested on rat mGluR5 (Rattus norvegicus, UniProt P31424) | compound O=C(c1ccc(C#Cc2ccccc2)cc1)N1CCC(N2CCCC2)CC1
### Response 3.73

### Prompt Try this compound too: O=C(c1ccc(C#Cc2ccccc2)cc1)N1CCC(NCC2CC2)CC1
### Response 2.79

### Prompt Try this compound too: COCCCNC(=O)c1ccc(-c2nc(-c3ccc(F)cc3)no2)cc1
### Response 1.12

### Prompt Try this compound too: CCCCNC(=O)c1ccc(C#Cc2ccccc2)cc1 [N-butyl-4-(phenylethynyl)benzamide]
### Response 0.0335

We next turn to a different compound, shown below.
### Prompt Request - read-out EC50 | tested on rat mGluR5 (Rattus norvegicus, UniProt P31424) | compound C[C@H](NC1CCN(C(=O)c2ccc(C#Cc3ccccc3)cc2)CC1)C1CCCCC1
### Response 0.129

* * *

target: rat mGluR5 (Rattus norvegicus); construct: expressed in transfected cells; host or cells: human embryonic kidney (HEK) cells; assay: potentiation of mGluR5 response to glutamate, Ca2+ fluorescence (FDSS) in HEK cells transfected with rat mGluR5; assay type: cell-based; conditions: HEK293; maximum extent of potentiation, normalized to maximal response to glutamate; SAR tables; read-out: % Glu Max
Each record here notes measured Emax.
# number only, unit % dropped from output

Reference set, count: 5
### Prompt Give its Emax value. Item: CC1(O)CCN(C(=O)c2ccc(C#Cc3ccc(F)c(F)c3)cc2)CC1 [Compound 20d]
### Response 91

### Prompt Try this molecule too: O=C(c1ccc(C#Cc2cccc(C(F)(F)F)c2)cc1)N1CCC(O)CC1 [Compound 19i]
### Response 68

### Prompt Try this molecule too: O=C(c1ccc(C#Cc2ccccc2F)cc1)N1CCC(O)CC1 [Compound 19a]
### Response 80

### Prompt Try this molecule too: O=C(c1ccc(C#Cc2ccc(F)cc2)cc1)N1CCOCC1 [Compound 20k]
### Response 107

### Prompt Try this molecule too: O=C(c1ccc(C#Cc2cc(F)cc(F)c2)cc1)N1CCC(O)CC1 [Compound 19e]
### Response 67

More entries:
### Prompt Give its Emax value. Item: O=C(c1ccc(C#Cc2ccc(F)cc2)cc1)N1CCC(CO)CC1 [Compound 20g]
### Response 95

* * *

biological target: rat mGluR5 (Rattus norvegicus); construct: expressed in transfected cells; host or cells: human embryonic kidney (HEK) cells; assay: potentiation of mGluR5 response to glutamate, Ca2+ fluorescence (FDSS) in HEK cells transfected with rat mGluR5; assay type: cell-based; conditions: Table 1, EC50 for potentiating the mGluR5 receptor; unit inferred; read-out: EC50
Quantity Name: pEC50
Just the number, please; pEC50 means minus log10 of the concentration in mol/L.

Reference set, count: 5
### Prompt Give its pEC50 value. Item: CCCNC(=O)c1ccc(-c2nc(-c3ccccc3)no2)cc1
### Response 5.64

### Prompt Try this compound too: O=C(c1ccc(C#Cc2cccc(F)c2)cc1)N1CCOCC1 [Compound 20j]
### Response 8.27

### Prompt Try this compound too: O=C(NC1Cc2ccccc2C1)c1ccc(C#Cc2ccccc2)cc1
### Response 6.80

### Prompt Try this compound too: O=C(c1ccc(C#Cc2ccccc2F)cc1)N1CCOCC1 [Compound 20i]
### Response 7.92

### Prompt Try this compound too: O=C(c1ccc(/C=C/c2ccccc2)cc1)N1CCC(O)CC1
### Response 5.71

We next turn to a different compound, shown below.
### Prompt Give its pEC50 value. Item: O=C(c1ccc(C#Cc2ccccc2)cc1)N1CCC(NCCN2CCOCC2)CC1
### Response 6.42
